Recorded values, source patent US20210330611A1.

tested on: fibrin- and LPS-induced microglia activation; assay: cells; type: cell-based, rat; conditions: Table 1; screen at 10 μM
Counter-ions that a name gives are not always drawn.
quantityName: Quadrant (FIG. 5b)

Write down Quadrant (FIG. 5b) measured for item CC(NCCc1ccc(O)cc1)C(O)c1ccc(O)cc1 (stereo not shown) [Ritodrine hydrochloride, reference compound]
Q3

State, in one line, measured Quadrant (FIG. 5b) of CC(=O)O[C@]1(C(C)=O)CC[C@H]2[C@@H]3C=C(C)C4=CC(=O)CC[C@]4(C)[C@H]3CC[C@@]21C [Megestrol acetate, reference compound]
Q3

Supply recorded Quadrant (FIG. 5b) for COc1ccccc1N1CCN(CC(O)COc2cccc3ccccc23)CC1 (stereo not shown) [Naftopidil dihydrochloride, reference compound] here.
Q3

Tell us which Quadrant (FIG. 5b) value is on record for NCCc1cc[nH]n1 [Betazole hydrochloride, reference compound]
Q3
